Recorded values, source paper PMC9532755.

- experimentalTarget: human sweet taste receptor TAS1R2/TAS1R3 (Homo sapiens, UniProt Q7RTX0+Q8TE23)
- Construct: expressed in transfected cells; host or cells: HEK293 Flp-In T-Rex cells; Gα15Gi3 and TAS1R2 constitutive, TAS1R3 tetracycline-inducible
- Sequence (Q8TE23 20-839): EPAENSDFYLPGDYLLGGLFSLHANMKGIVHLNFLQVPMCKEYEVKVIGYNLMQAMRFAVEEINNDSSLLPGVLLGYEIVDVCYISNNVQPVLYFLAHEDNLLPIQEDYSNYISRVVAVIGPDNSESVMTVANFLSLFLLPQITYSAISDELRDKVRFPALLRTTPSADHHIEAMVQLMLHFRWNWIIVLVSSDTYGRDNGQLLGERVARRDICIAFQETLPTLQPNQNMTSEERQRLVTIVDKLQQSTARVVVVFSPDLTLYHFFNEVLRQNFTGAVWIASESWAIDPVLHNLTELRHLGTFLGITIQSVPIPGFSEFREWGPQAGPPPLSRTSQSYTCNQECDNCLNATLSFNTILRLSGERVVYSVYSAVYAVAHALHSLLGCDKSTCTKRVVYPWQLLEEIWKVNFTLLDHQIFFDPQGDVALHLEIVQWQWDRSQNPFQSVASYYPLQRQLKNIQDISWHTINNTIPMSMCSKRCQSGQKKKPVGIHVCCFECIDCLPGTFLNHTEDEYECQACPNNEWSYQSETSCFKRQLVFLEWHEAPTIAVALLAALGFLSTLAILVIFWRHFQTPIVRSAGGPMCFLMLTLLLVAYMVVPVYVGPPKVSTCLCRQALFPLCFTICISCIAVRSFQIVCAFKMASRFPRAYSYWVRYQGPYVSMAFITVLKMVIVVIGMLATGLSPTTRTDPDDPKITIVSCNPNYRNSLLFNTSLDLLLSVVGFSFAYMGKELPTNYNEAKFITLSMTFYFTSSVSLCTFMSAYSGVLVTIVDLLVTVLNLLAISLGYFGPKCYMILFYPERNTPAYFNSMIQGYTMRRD
- Sequence (Q7RTX0 21-852): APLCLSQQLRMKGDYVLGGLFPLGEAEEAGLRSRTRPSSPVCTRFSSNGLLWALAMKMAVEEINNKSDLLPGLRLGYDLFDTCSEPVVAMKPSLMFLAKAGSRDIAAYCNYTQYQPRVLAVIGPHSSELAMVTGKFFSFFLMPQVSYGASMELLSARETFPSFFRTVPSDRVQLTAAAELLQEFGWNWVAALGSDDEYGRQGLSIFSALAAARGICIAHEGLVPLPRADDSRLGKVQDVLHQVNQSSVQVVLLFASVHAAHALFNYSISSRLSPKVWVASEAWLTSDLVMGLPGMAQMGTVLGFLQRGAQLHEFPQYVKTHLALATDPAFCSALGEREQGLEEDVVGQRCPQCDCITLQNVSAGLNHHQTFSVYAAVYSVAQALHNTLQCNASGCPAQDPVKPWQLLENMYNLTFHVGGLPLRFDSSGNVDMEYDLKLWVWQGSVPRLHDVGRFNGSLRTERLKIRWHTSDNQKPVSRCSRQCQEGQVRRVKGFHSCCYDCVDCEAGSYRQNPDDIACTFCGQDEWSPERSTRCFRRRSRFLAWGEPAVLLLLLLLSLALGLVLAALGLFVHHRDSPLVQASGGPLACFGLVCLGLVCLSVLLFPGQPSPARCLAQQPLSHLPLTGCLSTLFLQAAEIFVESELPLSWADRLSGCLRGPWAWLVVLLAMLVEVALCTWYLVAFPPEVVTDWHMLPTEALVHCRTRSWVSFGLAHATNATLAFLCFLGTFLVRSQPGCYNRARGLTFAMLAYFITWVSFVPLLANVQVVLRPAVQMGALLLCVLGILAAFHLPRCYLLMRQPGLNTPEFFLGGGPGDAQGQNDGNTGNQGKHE
- protocol: Calcium mobilization assay in HEK293 Flp-In T-Rex-Gα15Gi3-TAS1R2/TAS1R3 cells (FLIPR, Fluo-4)
- Format: cell-based
- experimentalContext: counted from agonist application at 20 sec; 1 mM Ace K, 3 mM aspartame, 10 mM cyclamate, 0.3 mM NHDC
Peptide text beside a SMILES is read from it.
endpointLabel: time until reaching peak activity after agonist application (s)

COc1ccc(CCC(=O)c2c(O)cc(O[C@@H]3O[C@H](CO)[C@@H](O)[C@H](O)[C@H]3O[C@@H]3O[C@@H](C)[C@H](O)[C@@H](O)[C@H]3O)cc2O)cc1O [NHDC, neohesperidin dihydrochalcone]    27
O=S(=O)(O)NC1CCCCC1 [cyclamate]    19
COC(=O)[C@H](Cc1ccccc1)NC(=O)[C@@H](N)CC(=O)O [aspartame] (H-Asp-Phe-OMe)    23
CC1=CC(=O)NS(=O)(=O)O1    27
